# Tested on: UACC-257
# Procedure summary: Growth inhibition of human UACC257 cells after 48 hrs by sulforhodamine B assay
# Type: functional
# Condition details: UACC-257, 48 h
Examples of compounds with documented GI50 follow.
Provide the reading as a plain figure in nM.

O=C(c1ccc2c(c1)Sc1ccccc1N2)c1c[nH]c2ccccc12 : 581

For COc1ccc(C(=O)N2c3ccccc3Sc3ccccc32)cc1F the compound record lists GI50 as 671

For CCOC(=O)c1cc(C(=O)N2c3ccccc3Sc3ccccc32)n2c(C)cccc12 the compound record lists GI50 as 3240

For CN(C)Cc1cn(C(=O)N2c3ccccc3Sc3ccccc32)c2ccccc12 the compound record lists GI50 as 1600

For COc1ccc(C(=O)N2c3ccccc3Sc3ccccc32)cc1N the compound record lists GI50 as 1940

For COc1c(F)ccc(C(=O)N2c3ccccc3Sc3ccccc32)c1F the compound record lists GI50 as 6510

For CCOc1ccc(C(=O)N2c3ccccc3Sc3ccccc32)cc1Cl the compound record lists GI50 as 564

----------
# Tested on: SF-539
# Procedure summary: Growth inhibition of human SF539 cells after 48 hrs by sulforhodamine B assay
# Type: functional
# Condition details: SF-539, 48 h
Output Met for records whose GI50 is lower than 600 nM, Not met for records at or above 600 nM.

Consider the worked cases shown below.
COc1cc2cc(C(=O)N3c4ccccc4Sc4ccccc43)[nH]c2cc1OC : Met
COc1c(F)ccc(C(=O)N2c3ccccc3Sc3ccccc32)c1F : Not met
CN(C)Cc1cn(C(=O)N2c3ccccc3Sc3ccccc32)c2ccccc12 : Not met
COc1ccc(C(=O)N2c3ccccc3Sc3ccccc32)cc1N : Met
CCOC(=O)c1cc(C(=O)N2c3ccccc3Sc3ccccc32)n2c(C)cccc12 : Not met
O=C(c1ccc2c(c1)Sc1ccccc1N2)c1c[nH]c2ccccc12 : Met

Below 600 nM on GI50? Entry CCOc1ccc(C(=O)N2c3ccccc3Sc3ccccc32)cc1Cl
Met

Below 600 nM on GI50? Entry COc1ccc(C(=O)N2c3ccccc3Sc3ccccc32)cc1F
Met

----------
# Tested on: UACC-62
# Procedure summary: Growth inhibition of human UACC62 cells at 10 uM after 48 hrs by sulforhodamine B assay
# Assay type: functional
# Condition details: UACC-62, 48 h, read-out: GI
Measurement label: inhibition of growth at 10 µM (%)
Provide the reading as a plain figure in %.

Here is how some compounds turned out for inhibition of growth at 10 µM.
O=C(c1cc2cc(F)ccc2[nH]1)N1c2ccccc2Sc2ccccc21 : 25.6
O=C(c1cnc2ccccn12)N1c2ccccc2Sc2ccccc21 : 39.3
CC(=O)c1cn(C(=O)N2c3ccccc3Sc3ccccc32)c2ccccc12 : 16

# evaluate next
Entry CCOC(=O)c1cc(C(=O)N2c3ccccc3Sc3ccccc32)n2ccc(N(C)C)cc12 , tested on UACC-62, has a reported inhibition of growth at 10 µM of 27.7

----------
# Test system: M14
# Procedure summary: Growth inhibition of human M14 cells after 48 hrs by sulforhodamine B assay
# Assay type: functional
# Condition details: M14, 48 h
Measurement label: GI50 (nM)
Provide the reading as a plain figure in nM.

O=C(c1ccc2c(c1)Sc1ccccc1N2)c1c[nH]c2ccccc12 : 372
COc1cc2cc(C(=O)N3c4ccccc4Sc4ccccc43)[nH]c2cc1OC : 599
CCOc1ccc(C(=O)N2c3ccccc3Sc3ccccc32)cc1Cl : 373
COc1ccc(C(=O)N2c3ccccc3Sc3ccccc32)cc1N : 90
CN(C)Cc1cn(C(=O)N2c3ccccc3Sc3ccccc32)c2ccccc12 : 1970
CCOC(=O)c1cc(C(=O)N2c3ccccc3Sc3ccccc32)n2c(C)cccc12 : 2600
COc1c(F)ccc(C(=O)N2c3ccccc3Sc3ccccc32)c1F : 3860

For COc1ccc(C(=O)N2c3ccccc3Sc3ccccc32)cc1F the compound record lists GI50 as 216

Recorded values, source ChEMBL document CHEMBL2331144.
